EXPERIMENTAL SYSTEM: Grb2 SH2 (UniProt P62993)
Sequence (P62993 whole entry, looked up): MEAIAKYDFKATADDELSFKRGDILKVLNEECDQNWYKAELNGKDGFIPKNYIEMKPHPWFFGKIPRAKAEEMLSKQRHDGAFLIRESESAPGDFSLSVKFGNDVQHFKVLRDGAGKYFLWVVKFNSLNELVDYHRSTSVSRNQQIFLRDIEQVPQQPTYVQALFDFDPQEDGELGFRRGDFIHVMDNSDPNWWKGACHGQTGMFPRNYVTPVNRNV
EXPERIMENT: SH2 binding enrichment of the phosphorylated peptide, bacterial display (enrichment ratio); higher = better substrate or ligand; peptides without Tyr show the background
Reported values of SH2 binding enrichment for individual entries

Entry PVDTFYDSTRG [DYNC2H1_Y2231_M2227V_YF] — recorded SH2 binding enrichment = 0.661

Memo: DPADRYLIEQC [CDKL5_Y286_T288I] , reported SH2 binding enrichment: 0.88

# SH2 binding enrichment (sequence: FTFDPYSEEDP [IL2RB_Y387_YF] ) is 1.09

// field: SH2 binding enrichment; key: TTPAVYARVTK [CTRB2_Y246_A250T] ; value = 0.696

What the record says about CTNIHYNYMCN [TP53_Y234_T231N] : SH2 binding enrichment is 1.05

The value of SH2 binding enrichment measured for the sequence AVAFVYFKSIG [ADGRL4_Y301_YF] turned out to be 0.928

---

EXPERIMENTAL SYSTEM: Grb2 SH2 (UniProt P62993)
EXPERIMENT: SH2 binding enrichment of the phosphorylated peptide, bacterial display (enrichment ratio); higher = better substrate or ligand; peptides without Tyr show the background
# SH2 binding enrichment per record follows
Just the number.

Reference set (3 entries):
# MACROMOLECULE SEQUENCE, SH2 binding enrichment
rows = [
    ("QTLTDYDIRFY [CSNK2A1_Y131]", 0.795),
    ("DLDPNYVVSSR [CKM_Y125_L127V]", 0.8),
    ("PVQAPYQKVVA [HBB_Y131_A130P]", 0.8),
]

Now consider the entry below.
Briefly, SH2 binding enrichment measured for INSLKYAYNIS [EIF2B5_Y583] : 0.778

---

Tested on: c-Abl (mouse);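 further: 11-residue human phosphosite peptides and single-mutation variants displayed on the E. coli surface, counted by deep sequencing, each peptide's frequency after selection divided by its frequency in the unselected input library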;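 further: frequency after pTyr selection over input frequency; kinase dosed for 20-30% of maximal phosphorylation in three min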
EXPERIMENT: phosphorylation enrichment, bacterial display (enrichment ratio); higher = better substrate or ligand; peptides without Tyr show the background
Rule: phosphorylation enrichment under 0.7 gives f, otherwise t.

Some solved entries appear below for comparison.
# MACROMOLECULE SEQUENCE, LABEL
measured = [
    ("SIIKDYFHRGA [GATM_Y203]", "f"),
    ("YASALYGQRRS [FGF11_Y162_R163G]", "t"),
    ("IGHHAYGDQFR [IDH1_Y135_R132H_YF]", "f"),
    ("HLNLTYRILSF [MMP23B_Y95_F91L]", "t"),
    ("FASTGYGIAIQ [GRIN2B_Y762]", "t"),
    ("LTFDEYRNISQ [ANXA3_Y216]", "t"),
    ("FRPPFYHRNCM [HGD_Y334_YF]", "f"),
    ("DLSEVYKPRRK [CCDC93_Y176]", "f"),
    ("LDLPGYCPLRE [CCDC116_Y291]", "t"),
    ("YQRITYHNWRH [PDE6B_Y556_R552Q]", "f"),
]

query: Identify whether the reported phosphorylation enrichment of the following sequence is 0.7 or greater: CSEEMYRLMLQ [RET_Y981]
result: t

query: Does FADPFYDFEIE [ZC3H18_Y372_YF] have a reported phosphorylation enrichment of at least 0.7?
result: t

query: Entry KYACSYTPVKA [FLNB_Y708_T703K] : is its phosphorylation enrichment no less than 0.7?
result: f

query: Hi, just wondering whether LIEQAYDNPHE [PRPF8_Y871] shows phosphorylation enrichment of 0.7 or higher.
result: t

query: Does HKANEYFPVVI [ADAMTS18_Y764_L769I_YF] have a reported phosphorylation enrichment of at least 0.7?
result: t
